Reference source: patent US12054487B2

Reported pIC50 values for the following compounds.
Target: M2 (Homo sapiens)
Sequence (P08172 1-466): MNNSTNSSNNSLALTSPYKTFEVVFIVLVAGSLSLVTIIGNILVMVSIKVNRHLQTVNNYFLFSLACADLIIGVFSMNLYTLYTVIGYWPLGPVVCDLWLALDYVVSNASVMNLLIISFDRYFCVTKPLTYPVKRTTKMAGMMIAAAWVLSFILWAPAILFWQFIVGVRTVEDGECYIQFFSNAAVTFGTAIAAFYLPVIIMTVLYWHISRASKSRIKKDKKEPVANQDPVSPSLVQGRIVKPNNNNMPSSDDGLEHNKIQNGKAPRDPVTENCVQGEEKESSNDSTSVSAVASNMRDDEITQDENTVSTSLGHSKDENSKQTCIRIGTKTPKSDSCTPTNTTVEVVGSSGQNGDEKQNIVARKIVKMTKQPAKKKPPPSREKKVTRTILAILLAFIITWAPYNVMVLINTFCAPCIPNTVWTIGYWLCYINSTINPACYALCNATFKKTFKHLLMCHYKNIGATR
Test: In vitro functional assay of muscarinic acetylcholine receptor activity, M2
Conditions: antagonist activity; M2 method not separately described
pIC50: −log10 of the molar value.

compound: O=C1C(CCCc2cccc3ncnn23)C[C@H]2CN(c3ccc(F)cn3)CCN12 (single isomer, unassigned) [Example 50]
meas value: < 5.00
//
compound: N#Cc1ccc(N2CCN3C(=O)[C@@H](CNCc4cccc5ncnn45)C[C@H]3C2)nc1
meas value: 5.00 to 6.00
//
compound: O=C1[C@@H](CCCc2cccn3ncnc23)C[C@H]2CN(c3ncccn3)CCN12
meas value: < 5.00

**Q:** Reported pIC50 for Cc1ncc(N2CCN3C(=O)C(CCCc4cccc5ncnn45)C[C@H]3C2)cc1F (mixture of isomers) : what is it?
**A:** 5.00 to 6.00

**Q:** Continue with `O=C1[C@@H](CCCc2cccc3ncsc23)C[C@H]2CN(c3ccncc3)CCN12`
**A:** 6.00 to 7.00

**Q:** Continue with `N#Cc1ccc(N2CCN3C(=O)[C@@H](CCCc4cccc5ncnn45)C[C@H]3C2)nc1`
**A:** 6.00 to 7.00

**Q:** Continue with `N#Cc1ccc(N2CCN3C(=O)[C@@H](CCCc4cccc5nncn45)C[C@H]3C2)nc1`
**A:** 6.00 to 7.00

**Q:** Continue with O=C1C(CCCc2cccc3ncnn23)C[C@H]2CN(c3cncc(Cl)c3)CCN12 (mixture of isomers)
**A:** 5.00 to 6.00

**Q:** Continue with `N#Cc1ccc(N2CCN3C(=O)[C@@H](CCCc4cccnn4)C[C@H]3C2)nc1`
**A:** 6.00 to 7.00

====

target: M2 (Homo sapiens, UniProt P08172); test: In vitro functional assay of muscarinic acetylcholine receptor activity, M2; details: antagonist activity; M2 method not separately described
measure name: IC50

Study these solved cases before continuing.
molecule: N#Cc1ccc(N2CCN3C(=O)[C@@H](CCCc4cccc5nccnc45)C[C@H]3C2)nc1
IC50: < 0.1 µM
--
molecule: N#Cc1ccc(N2CCN3C(=O)[C@@H](CCCc4cccn5nccc45)C[C@H]3C2)nc1
IC50: 0.1 to 1 µM
--
molecule: O=C1C(CCCc2cccc3ncnn23)C[C@H]2CN(c3ccc(C(F)F)cn3)CCN12 (mixture of isomers)
IC50: 1 to 10 µM
--
molecule: Cc1ccc(N2CCN3C(=O)[C@@H](CCCc4cccc5ncnn45)C[C@H]3C2)nn1
IC50: 1 to 10 µM
--
molecule: N#Cc1ccc(N2CCN3C(=O)[C@@H](CCCc4cccc(F)c4C4CC4)C[C@H]3C2)nc1
IC50: 1 to 10 µM

**Q:** Reported IC50 for `O=C1[C@@H](CCCc2cccn3ncnc23)C[C@H]2CN(c3ccc(F)cc3F)CCN12` : what is it?
**A:** 1 to 10 µM

====

Molecular target: human M1 receptor (Homo sapiens)
Construct: host or cells: CHO-K1
Sequence (P11229 whole entry): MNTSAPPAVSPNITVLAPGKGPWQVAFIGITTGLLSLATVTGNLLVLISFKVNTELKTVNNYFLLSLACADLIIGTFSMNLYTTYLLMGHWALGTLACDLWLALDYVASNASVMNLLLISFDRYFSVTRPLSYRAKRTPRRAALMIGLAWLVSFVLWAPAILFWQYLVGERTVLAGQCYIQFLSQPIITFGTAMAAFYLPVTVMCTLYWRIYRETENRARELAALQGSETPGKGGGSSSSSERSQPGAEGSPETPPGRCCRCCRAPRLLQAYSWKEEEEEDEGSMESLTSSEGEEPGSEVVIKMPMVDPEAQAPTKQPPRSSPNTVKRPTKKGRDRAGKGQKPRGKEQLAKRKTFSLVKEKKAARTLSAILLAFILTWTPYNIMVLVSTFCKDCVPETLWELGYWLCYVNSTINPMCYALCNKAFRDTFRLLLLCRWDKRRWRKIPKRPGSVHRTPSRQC
Experiment: In vitro functional assay of muscarinic acetylcholine receptor activity (aequorin calcium flux, antagonist mode vs EC80 acetylcholine), M1
Assay type: cell-based
Conditions: CHO-K1 cells stably expressing human M1 receptor with Aequorin; decrease in EC80 acetylcholine response
Experimental: CHO-K1 cells stably expressing human M1 receptor with Aequorin (Perkin Elmer) were grown in F12 media, 10% FBS with 0.4 mg/mL geneticin and […]. Cells were grown to confluence and frozen down to be assayed at a later date. […] Calcium flux was measured using the FlexStation 3 (Molecular Devices). […] Antagonist activity was analyzed as a concentration dependent decrease in the EC80 acetylcholine response. […] The IC50 of the compounds was calculated from the dose response curve.
pIC50: −log10 of the molar value.
measure name: pIC50

compound: N#Cc1cc(N2CCN3C(=O)[C@@H](CCCc4cccc5ncnn45)C[C@H]3C2)ccc1F [Example 52]
measure name: pIC50
meas value: 6.00 to 7.00
--
compound: O=C1[C@H](CCCc2cccc3ncsc23)C[C@@H]2CN(c3ccncc3F)CCN12 [Example 8]
measure name: pIC50
meas value: < 5.00

**Q:** Reported pIC50 for O=C1[C@@H](CCCc2cccn3nccc23)C[C@H]2CN(c3ccc(F)cn3)CCN12 [Example 87] : what is it?
**A:** 6.00 to 7.00

**Q:** Continue with N#Cc1ccc(N2CCN3C(=O)[C@@H](CCCc4cccc5nnnn45)C[C@H]3C2)nc1 [Example 17]
**A:** > 7.00

**Q:** Continue with N#Cc1ccc(N2CCN3C(=O)[C@@H](CNCc4cccc5ncnn45)C[C@H]3C2)nc1 [Example 5]
**A:** 6.00 to 7.00

**Q:** Continue with O=C1C(CCCc2cccc3ncnn23)C[C@H]2CN(c3ccc(F)cn3)CCN12 (single isomer, unassigned) [Example 50]
**A:** 6.00 to 7.00

====

molecular target: UniProtKB P08172; test: In vitro functional assay of muscarinic acetylcholine receptor activity, M2; conditions: antagonist activity; M2 method not separately described
pIC50: −log10 of the molar value.
Reported pIC50 values for the following compounds.

Study these solved cases before continuing.
compound: O=C1[C@@H](CCCc2cccc3ncsc23)C[C@H]2CN(c3cccnc3)CCN12
pIC50: < 5.00
--
compound: O=C1[C@@H](CCCc2cccn3ncnc23)C[C@H]2CN(c3ncc(Cl)cn3)CCN12
pIC50: 6.00 to 7.00
--
compound: N#Cc1ccc(N2CCN3C(=O)[C@@H](CCCc4cccc5c4CCC5)C[C@H]3C2)nc1
pIC50: 5.00 to 6.00
--
compound: Cc1ccc(N2CCN3C(=O)[C@@H](CCCc4cccc5ncnn45)C[C@H]3C2)nc1
pIC50: < 5.00
--
compound: O=C1C(CCCc2c(F)ccc3nccn23)C[C@H]2CN(c3ccc(F)cn3)CCN12 (stereo partly shown)
pIC50: 5.00 to 6.00
--
compound: O=C1C(CCCc2cccc3ncsc23)CC2CN(c3ccncc3F)CCN12 (racemic)
pIC50: 5.00 to 6.00
--
compound: O=C1C(CCCc2cccc3ncnn23)C[C@H]2CN(c3ccc(F)cn3)CCN12 (mixture of isomers) [Example 41]
pIC50: 5.00 to 6.00
--
compound: Cc1cc(N2CCN3C(=O)C(CCCc4cccc5ncnn45)C[C@H]3C2)ncc1F (mixture of isomers)
pIC50: 5.00 to 6.00
--
compound: O=C1[C@@H](CCCc2cccc3ncnn23)C[C@H]2CN(c3ccc(Cl)cn3)CCN12
pIC50: 5.00 to 6.00

**Q:** Reported pIC50 for `COc1cc(N2CCN3C(=O)[C@@H](CCCc4cccc5ncnn45)C[C@H]3C2)ccn1` : what is it?
**A:** 5.00 to 6.00

====

target: M3 (Homo sapiens, UniProt P20309); assay: In vitro functional assay of muscarinic acetylcholine receptor activity, M3; details: antagonist activity; M3 method not separately described
Sequence (P20309 whole entry): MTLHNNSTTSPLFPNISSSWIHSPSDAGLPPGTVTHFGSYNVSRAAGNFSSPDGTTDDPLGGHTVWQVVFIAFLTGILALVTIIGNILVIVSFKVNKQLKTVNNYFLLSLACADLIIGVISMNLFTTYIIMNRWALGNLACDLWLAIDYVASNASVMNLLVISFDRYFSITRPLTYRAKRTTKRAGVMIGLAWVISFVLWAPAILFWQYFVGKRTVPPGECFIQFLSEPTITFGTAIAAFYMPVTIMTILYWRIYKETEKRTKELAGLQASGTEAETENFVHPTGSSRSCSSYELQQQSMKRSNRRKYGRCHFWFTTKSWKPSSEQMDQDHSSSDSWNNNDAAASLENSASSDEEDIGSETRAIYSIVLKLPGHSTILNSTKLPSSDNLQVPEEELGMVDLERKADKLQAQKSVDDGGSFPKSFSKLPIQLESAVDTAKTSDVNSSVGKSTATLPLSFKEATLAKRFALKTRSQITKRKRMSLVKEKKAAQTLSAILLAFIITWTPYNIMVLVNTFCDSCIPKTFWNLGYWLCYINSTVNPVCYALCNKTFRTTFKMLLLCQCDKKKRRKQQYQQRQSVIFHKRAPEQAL
pIC50: −log10 of the molar value.
Reported pIC50 values for the following compounds.

compound: N#Cc1ccc(N2CCN3C(=O)[C@@H](CCCc4cccn5nccc45)C[C@H]3C2)nc1
pIC50: 6.00 to 7.00
--
compound: O=C1[C@@H](CCCc2cccn3ncnc23)C[C@H]2CN(c3ccc(F)cn3)CCN12
pIC50: 5.00 to 6.00
--
compound: N#Cc1ccc(N2CCN3C(=O)[C@@H](CCCc4cccc5cncn45)C[C@H]3C2)nc1
pIC50: 5.00 to 6.00
--
compound: O=C1[C@H](CCCc2cccc3ncsc23)C[C@H]2CN(c3ccncc3F)CCN12
pIC50: < 5.00
--
compound: N#Cc1ccc(N2CCN3C(=O)[C@@H](CCCc4cccc5c4NCCN5)C[C@H]3C2)nc1
pIC50: < 5.00

**Q:** Reported pIC50 for O=C1C(CCCc2c(F)ccc3nccn23)C[C@H]2CN(c3ccc(F)cn3)CCN12 (stereo partly shown) : what is it?
**A:** 5.00 to 6.00

**Q:** Continue with `Cc1cnc(N2CCN3C(=O)[C@@H](CCCc4cccn5ncnc45)C[C@H]3C2)nc1`
**A:** < 5.00
